test system: normal human hepatocytes (HP-F); assay: MTS cell viability assay, normal human hepatocytes; type: cell-based; details: 24 h
pEC50: −log10 of the molar value.
# Lookup of reported pEC50 keyed by entry

COMPOUND	pEC50
CC/C=C\C/C=C\C/C=C\CCCCCCCC(=O)O	< 4.00
CC/C=C\C/C=C\C/C=C\C/C=C\C/C=C\CCCC(=O)OC[C@H]1O[C@@H](Oc2cc(O)cc(O)c2C(=O)CCc2ccc(O)cc2)[C@H](O)[C@@H](O)[C@@H]1O [Pz-EPA ester, eicosapentaenoic acid ester (EPA) of Pz]	< 4.00
CC/C=C\C/C=C\C/C=C\C/C=C\C/C=C\C/C=C\CCC(=O)O	< 4.00

// moving on: another record for pEC50
IN: Would you mind telling me what pEC50 value was observed for CC/C=C\C/C=C\C/C=C\C/C=C\C/C=C\C/C=C\CCC(=O)OC[C@H]1O[C@@H](Oc2cc(O)cc(O)c2C(=O)CCc2ccc(O)cc2)[C@H](O)[C@@H](O)[C@@H]1O ?
OUT: < 4.00

====

tested on: MDA-MB-231 cells; test: MTS cell proliferation assay, MDA-MB-231; type: cell-based, human; settings: MDA-MB-231, 6 h, MTS
# Lookup of reported EC50 keyed by entry
Record the value in µM, omitting the unit from your answer.

COMPOUND	MEASURE_NAME	UNIT_ABBREVIATION	MEASURED
CC/C=C\C/C=C\C/C=C\C/C=C\C/C=C\C/C=C\CCC(=O)OC[C@H]1O[C@@H](Oc2cc(O)cc(O)c2C(=O)CCc2ccc(O)cc2)[C@H](O)[C@@H](O)[C@@H]1O	EC50	µM	83.7

// moving on: another record for EC50
IN: Would you mind telling me what EC50 value was observed for CC/C=C\C/C=C\C/C=C\C/C=C\C/C=C\CCCC(=O)OC[C@H]1O[C@@H](Oc2cc(O)cc(O)c2C(=O)CCc2ccc(O)cc2)[C@H](O)[C@@H](O)[C@@H]1O [Pz-EPA ester, eicosapentaenoic acid ester (EPA) of Pz] ?
OUT: 33.6

====

Test system: MDA-MB-231 cells
Assay: MTS cell proliferation assay, MDA-MB-231
Type: cell-based, human
Settings: MDA-MB-231, 12 h, MTS
Description: Cell viability was determined by using the MTS assay. […] Absorbance at 490 nm (OD490) was measured by using a Flurostar Optima microplate reader (BMG Labtech, Cary, NC, USA) to obtain the number of viable cells relative to the control population. Percentage of viability of the test compound treated cells are expressed as percentage compared to control (<0.5% DMSO). […]
MEASURE_NAME: EC50 (µM)
Record the value in µM, omitting the unit from your answer.

MOLECULE	ASSAYED_TARGET	EC50 / µM
CC/C=C\C/C=C\C/C=C\C/C=C\C/C=C\C/C=C\CCC(=O)OC[C@H]1O[C@@H](Oc2cc(O)cc(O)c2C(=O)CCc2ccc(O)cc2)[C@H](O)[C@@H](O)[C@@H]1O	MDA-MB-231 cells	70.2

// moving on: another record for EC50
IN: Would you mind telling me what EC50 value was observed for CC/C=C\C/C=C\C/C=C\C/C=C\C/C=C\CCCC(=O)OC[C@H]1O[C@@H](Oc2cc(O)cc(O)c2C(=O)CCc2ccc(O)cc2)[C@H](O)[C@@H](O)[C@@H]1O [Pz-EPA ester, eicosapentaenoic acid ester (EPA) of Pz] ?
OUT: 32.6

====

# Lookup of reported EC50 keyed by entry
system: MDA-MB-231 cells; experiment: MTS cell proliferation assay, MDA-MB-231; assay type: cell-based, human; conditions: Homo sapiens; MDA-MB-231, 3 h, MTS

COMPOUND	ASSAYED_TARGET	EC50
CCCCCCCCCCCCCCCCCC(=O)O [Stearic acid, stearic acid]	MDA-MB-231 cells	> 100 µM
O=C(CCc1ccc(O)cc1)c1c(O)cc(O)cc1O [Phloretin]	MDA-MB-231 cells	> 100 µM
CC/C=C\C/C=C\C/C=C\C/C=C\C/C=C\CCCC(=O)O [EPA, eicosapentaenoic acid]	MDA-MB-231 cells	> 100 µM
COc1cccc2c1C(=O)c1c(O)c3c(c(O)c1C2=O)C[C@@](O)(C(=O)CO)C[C@@H]3O[C@H]1C[C@H](N)[C@H](O)[C@H](C)O1 [Doxorubicin, doxorubicin]	MDA-MB-231 cells	> 100 µM
CCCCCCCC/C=C\CCCCCCCC(=O)O [Oleic acid, oleic acid]	MDA-MB-231 cells	> 100 µM
CCCCC/C=C\C/C=C\CCCCCCCC(=O)O [Linoleic acid, linoleic acid]	MDA-MB-231 cells	> 100 µM

// moving on: another record for EC50
IN: Would you mind telling me what EC50 value was observed for O=C(CCc1ccc(O)cc1)c1c(O)cc(O)cc1O[C@@H]1O[C@H](CO)[C@@H](O)[C@H](O)[C@H]1O [Phloridzin, phloretin 2′-O-glucoside] ?
OUT: > 100 µM

====

tested on: THP-1 cells; assay: MTS cell proliferation assay, THP-1; format: cell-based, human; settings: Homo sapiens; THP-1, 24 h, MTS
pEC50: −log10 of the molar value.
MEASURE_NAME: pEC50

Field: example entries. Status: answers known.
COMPOUND	pEC50
CCCCC/C=C\C/C=C\CCCCCCCC(=O)O	< 4.00
O=C(CCc1ccc(O)cc1)c1c(O)cc(O)cc1O	4.40

// moving on: another record for pEC50
IN: Would you mind telling me what pEC50 value was observed for CCCCCCCC/C=C\CCCCCCCC(=O)O ?
OUT: < 4.00

====

tested on: THP-1 cells; experiment: MTS cell proliferation assay, THP-1; type: cell-based, human; details: THP-1, 12 h, MTS
# Lookup of reported EC50 keyed by entry
Record the value in µM, omitting the unit from your answer.

COMPOUND	EC50 [µM]
CC/C=C\C/C=C\C/C=C\C/C=C\C/C=C\C/C=C\CCC(=O)OC[C@H]1O[C@@H](Oc2cc(O)cc(O)c2C(=O)CCc2ccc(O)cc2)[C@H](O)[C@@H](O)[C@@H]1O	42.7

IN: Would you mind telling me what EC50 value was observed for CC/C=C\C/C=C\C/C=C\C/C=C\C/C=C\CCCC(=O)OC[C@H]1O[C@@H](Oc2cc(O)cc(O)c2C(=O)CCc2ccc(O)cc2)[C@H](O)[C@@H](O)[C@@H]1O [Pz-EPA ester, eicosapentaenoic acid ester (EPA) of Pz] ?
OUT: 17

====

tested on: THP-1 cells; assay: MTS cell proliferation assay, THP-1; assay type: cell-based, human; details: THP-1, 6 h, MTS
# Lookup of reported pEC50 keyed by entry
Kindly note that pEC50 refers to -log10 of the concentration in mol/L and answer with the value alone.

IN: Would you mind telling me what pEC50 value was observed for CC/C=C\C/C=C\C/C=C\C/C=C\C/C=C\CCCC(=O)OC[C@H]1O[C@@H](Oc2cc(O)cc(O)c2C(=O)CCc2ccc(O)cc2)[C@H](O)[C@@H](O)[C@@H]1O [Pz-EPA ester, eicosapentaenoic acid ester (EPA) of Pz] ?
OUT: 4.70

IN: Another: CC/C=C\C/C=C\C/C=C\C/C=C\C/C=C\C/C=C\CCC(=O)OC[C@H]1O[C@@H](Oc2cc(O)cc(O)c2C(=O)CCc2ccc(O)cc2)[C@H](O)[C@@H](O)[C@@H]1O
OUT: 4.31

====

test system: THP-1 cells; assay: MTS cell proliferation assay, THP-1; assay type: cell-based, human; settings: THP-1, 18 h, MTS
# Lookup of reported EC50 keyed by entry
Record the value in µM, omitting the unit from your answer.

COMPOUND	EC50 [µM]
CC/C=C\C/C=C\C/C=C\C/C=C\C/C=C\CCCC(=O)OC[C@H]1O[C@@H](Oc2cc(O)cc(O)c2C(=O)CCc2ccc(O)cc2)[C@H](O)[C@@H](O)[C@@H]1O [Pz-EPA ester, eicosapentaenoic acid ester (EPA) of Pz]	15.8

IN: Would you mind telling me what EC50 value was observed for CC/C=C\C/C=C\C/C=C\C/C=C\C/C=C\C/C=C\CCC(=O)OC[C@H]1O[C@@H](Oc2cc(O)cc(O)c2C(=O)CCc2ccc(O)cc2)[C@H](O)[C@@H](O)[C@@H]1O [Pz-DHA ester, DHA ester of Pz] ?
OUT: 35.8

====

tested on: HepG2 cells; assay: MTS cell proliferation assay, HepG2; format: cell-based, human; details: HepG2, 3 h, MTS
MEASURE_NAME: pEC50
Kindly note that pEC50 refers to -log10 of the concentration in mol/L and answer with the value alone.

COMPOUND	pEC50
CC/C=C\C/C=C\C/C=C\C/C=C\C/C=C\CCCC(=O)OC[C@H]1O[C@@H](Oc2cc(O)cc(O)c2C(=O)CCc2ccc(O)cc2)[C@H](O)[C@@H](O)[C@@H]1O [Pz-EPA ester, eicosapentaenoic acid ester (EPA) of Pz]	4.40

IN: Would you mind telling me what pEC50 value was observed for CC/C=C\C/C=C\C/C=C\C/C=C\C/C=C\C/C=C\CCC(=O)OC[C@H]1O[C@@H](Oc2cc(O)cc(O)c2C(=O)CCc2ccc(O)cc2)[C@H](O)[C@@H](O)[C@@H]1O ?
OUT: 4.11
